Test system: K4 kissing-loop RNA reporter;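 also: bound reporter read as fluorescence of individual clusters on recovered sequencing chips by microscopy, with normalized cluster intensities fitted with a binding model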
Test: apparent KD of K4 kissing-loop reporter; higher = weaker reporter binding
Settings: Eterna round: R107; input ligand: tryptophan 2.4 mM
Endpoint: apparent KD of K4 kissing-loop reporter
Kindly write the number and append the unit.

Example sequences with recorded apparent KD of K4 kissing-loop reporter:
Entry sequence	Measurement
GUAGGAUGAGGAGGAGGAUGAAUUACUGAAGGAGCGCAUAUUAAUGCAGGUAGGUCGCGGUAAAGAAGUAUAGUGAUGUUAUAUA [SSArgA.H]	234 nM
AACUGUCAAGGACAACAUUACUGAGGUGAUACCAGCAUCGAAAGAUGCCCUUGGCAGCACUGACUUGCAGUGAUGUUGCAAGUAA [BrourdMod 8 - Jieux - Exclusion - Theophylline A]	189 nM
UCUUUACCGGGAAGGAGCGUGAAUGAGAAUGGAUAUAGUGAUGUUAUGUAUACGAACGAAUCGCAGGUAGGUCGCCCGGAUCCCU [SSArgB.aB]	485 nM

Param request: apparent KD of K4 kissing-loop reporter | system K4 kissing-loop RNA reporter | item AUGACAGAAUCGGCCGCCACUCAUUGUCCUGUGGACAUUCUAGGAUUAGUGAUGUUUUUCCCAUCGAGGACCGGGAUACAGAUUG [theeternabot_sameState_KL_Trp_B_6] 519 nM

Fill in apparent KD of K4 kissing-loop reporter for UCACUACACUGAAGGAGCGUGAGGAGACUAGUGAUGUUGGUCAGAUUCUAUGAUCGUAACUCACAGGUAGGUCGCAGUGUAGUGU [Arg B SS t7] tested with K4 kissing-loop RNA reporter. 476 nM

Give apparent KD of K4 kissing-loop reporter for UUGCAUGCUAGGGAAACCUAGCAUGCAUGCCGAGGACCGGUACGGCCGCCACUCGAACGAGUGAUGUUCGUUGACCAAAAUAAAA tested on K4 kissing-loop RNA reporter. 282 nM

State apparent KD of K4 kissing-loop reporter on K4 kissing-loop RNA reporter. Entry: ACUACGAAGACGGCCGCCACUGAUAUUCGUAGAUCCAUCAUUACAUGAGUGAUGUUCAUGUAUAUCAGGACCGGGUCAAGAUGGU [KL-XTryp-B17 #analogue] 226 nM

Send back K4 kissing-loop RNA reporter apparent KD of K4 kissing-loop reporter of ACAUGUUCCAGUGAUGUUGGCGUACGUGAUACCAGACGAAUAAAAGUCCCUUGGCAGCACAAAUAAGCCAAGAUAGGUGAAUGAU [#04 K4 Theophylline A Exclusion] only. 405 nM

For K4 kissing-loop RNA reporter, give apparent KD of K4 kissing-loop reporter of the listed sequence: ACCUGUAGCAGAAGGAGCGACAGUUAUUCUGAUAGAACUCUGAGUGAUGUUCAGAACAACUGUCAGGUAGGUCGCUGAUACAGGU [Arg B Ex t8a] 583 nM

GET apparent KD of K4 kissing-loop reporter | system: K4 kissing-loop RNA reporter | item: GGAUAGGACAGAGGAUAUCCAGUGAUGUUGGAGAAUUCUCCUUCAUCAUGUCACAAAAGUGGCAUGGGAGAAGGCUGUCCUAUCG [Mod of Eli's FmnBX 29 v3] 578 nM

Provide apparent KD of K4 kissing-loop reporter, system K4 kissing-loop RNA reporter, entry AGGUAUGUCUGAAGGAGCGACUAAGAAGCAGUGAUGUUGCUAAGUAGUAAGUAGCUACGUAGUCAGGUAGGUCGCAGAUAUACCU [Arg B SS t14] 189 nM

Provide apparent KD of K4 kissing-loop reporter, system K4 kissing-loop RNA reporter, entry ACCAUCAAAGAUGGCCAGGACUCCGCUGAUACCAGUGUGAAAACACUCCCUUGGCAGCAGGUGAGUGAUGUUCACAGUCCAUGGA [Omel KL Theo A SS B v3] 143 nM

Print K4 kissing-loop RNA reporter apparent KD of K4 kissing-loop reporter for AAGUGAUGUUGUAGUGAUGUUGUGAUGUUGCAGGAUAUAUAGUGAUGUAGAAGGGUAUGUGCAGUUUUAUUUUUUGAGUGUUGAU [ttytmullin] . 58.1 nM

Param request: apparent KD of K4 kissing-loop reporter | system K4 kissing-loop RNA reporter | item ACAUGAGUGAUGUUCAUGUGGAGCAGGGUACGAGGACCGGUACGGCCGCCACUCGAGAGUUAUGACGAGUUAAUGGCAACGAUGU [KL-Tryp-A8 #analogue] 103 nM

Jot down apparent KD of K4 kissing-loop reporter (K4 kissing-loop RNA reporter) of UGUACCGAGUCAGGAUAUCAACGACUGACAAAGUCGGUCGAAUAUCCAGUGAUGUUGGAAAAUAACUGAGAAGGGACUUGGUACU [FmnBS 13 #SwitchBubble #StaticStem] . 903 nM

Identify measured apparent KD of K4 kissing-loop reporter obtained with K4 kissing-loop RNA reporter for AGUUCCGACGGAAGGAGCGGACAGUAUUGACGGAAAGGUGCAAGUGAUGUUUGCGCUUGUGUCCAGGUAGGUCGCCGUCGGAACA [Arg B SS t13] . 89.4 nM

Please tell me the measured apparent KD of K4 kissing-loop reporter for GUAAGACCGGGACUCCAGUGAUGUUGGAGGCAGGAUAUCCAGUCGAGGAGAAGGGCCAGGGAUAUCGAGCUGCUCGGUUUGUAGU [Argeis] ; system: K4 kissing-loop RNA reporter. 56.2 nM

Provide apparent KD of K4 kissing-loop reporter, tested on K4 kissing-loop RNA reporter, for CGCAGUGAUGUUGCUAUUAUUCUUGAUUAACGAGGACCGGUACGGCCGCCACUCGAUUUCUAUCUAAUUUAGUGUUAUGUUGAUU [JR_ExcTryptoA_Sub007] . 256 nM

For K4 kissing-loop RNA reporter, give the measured apparent KD of K4 kissing-loop reporter of the entry AGGGACUCUUCGGAGUCCCGGUUAAGGGAUACCAGUGAUGUUGGUCACCCUUGGCAGCCCAGAAACCAAGCCACCAAAGGUGGCA [Omei KL Theo A Exc A v2] 121 nM

Numbers sourced from the supplement of paper PMC9170038.
